experiment: inhibitors of TNFa-induced NFkB p65 translocation, primary screen, imaging, HUVEC, MLSMR starter and 10KST1 sets (AID 438); settings: HUVEC TNFa-induced p65 nuclear translocation; at 2 µM, hits give high values, 0% TNFa-plus-vehicle, 100% no-TNFa wells;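 further: compound added about 3h40 before a 20 min TNFalpha stimulation; signal is the nuclear over cytoplasmic p65 intensity ratio per well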
READOUT NAME: inhibition (%)
API: value field is a number in %; no unit string.

COMPOUND | inhibition [%]
O=C(NCCc1cccc(Cl)c1)c1cccnc1 | -8
Cn1c(Cc2csc(N)n2)nnc1SCC(=O)NC1CCCCC1 | -3.3
Cc1nc(=S)n(-c2ccccc2)[nH]1 | -5

Lab book: inhibition of CCOC(=O)C(CC)Sc1ncnc2nc[nH]c12 (centres undefined) noted as 1.9

Lab book: inhibition of `COc1ccccc1CNC(=O)CCn1c(=O)[nH]c2ccsc2c1=O` noted as 1.1

Lab book: inhibition of `Cc1ccc(C)c(-n2c(Cc3cc(=O)[nH]c(=O)[nH]3)nnc2SCC(=O)NCc2ccco2)c1` noted as -4.3

Lab book: inhibition of `CCn1c(SCC(=O)Nc2nnc(C)s2)nnc1-c1ccncc1` noted as -17.9
